METHOD_DESCRIPTION: Stability of ratio of the mixture of desloratadine polymorphic forms on storage (XRPD)
Format: physicochemical
RECORDED_CONDITIONS: 40° C., 75% RH; 0 week
OBSERVABLE: Form 1 (%)
Write your answer as a measured quantity: the number, then the unit.

Example cases with answers are listed next.
Read off the recorded Form 1 (%) for Clc1ccc2c(c1)CCc1cccnc1C2=C1CCNCC1 [Example 3 of Stability Tests, desloratadine] 74%

Read off the recorded Form 1 (%) for Clc1ccc2c(c1)CCc1cccnc1C2=C1CCNCC1 [Example 1 of Stability Tests, desloratadine] 57%

Read off the recorded Form 1 (%) for Clc1ccc2c(c1)CCc1cccnc1C2=C1CCNCC1 [Example 4 of Stability Tests, desloratadine] 76%

Continuing:
Read off the recorded Form 1 (%) for Clc1ccc2c(c1)CCc1cccnc1C2=C1CCNCC1 [Example 2 of Stability Tests, desloratadine] 62%
